Catalogue of sequences with associated apparent KD of K4 kissing-loop reporter
Tested on: K4 kissing-loop RNA reporter;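 also: bound reporter read as fluorescence of individual clusters on recovered sequencing chips by microscopy, with normalized cluster intensities fitted with a binding model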
method: apparent KD of K4 kissing-loop reporter; higher = weaker reporter binding
experimental_parameters: Eterna round: R107; input ligand: arginine 13.2 mM
endpoint_label: apparent KD of K4 kissing-loop reporter (nM)

INSERT INTO assay_data (residue_sequence, unit_of_measure, test_value) VALUES
  ('GCAGUGAUGUUGCGGAUGUACAGUGGGAUACGAGGACCGGUACGGCCGCCACUCGUACAGAACAAGCUAAUACAUCGAUAGGUGA [XII]', 'nM', 281),
  ('GGGAGUAGUGCGGCCGCCACUGAGAAAGAAGAAGAAUAUAGUGAUGUUAUAUAGGAAGGGAAGAACAGGACCGGGCAUUAGAUUU [SSTRyptB.Y]', 'nM', 306),
  ('CGGAUGUAGUGAUGUUAUAUUAGAUGUAGACGAGGACCGGUACGGCCGCCACUCGAAACGGCUACUAGCGCGUUGCGAGGUGUGC [ExTryptoA.CJ]', 'nM', 525),
  ('UGGAUAUAGUGAUGUUAUAUAGAGAGUGAUACCAGUUUAGAGAAGAACCCUUGGCAGCAUAGAAGAGUAUCAUUGGAGAAGAAUG [ExTheophyl.Aq]', 'nM', 193),
  ('UGUCAUUGGUCGGCCGCCACUUCGUGUAGAGUGAUGUUUUGUAGGACGGAUCGAAAGAUCUGUCGAAGGACCGGGACCGAUGACU [FiskerMod 18 - Jieux - Same State - Tryptophan B]', 'nM', 189),
  ('CCAUUCUUUUACGAUACCAGUUUAAUAUAUUUAUUCAUAACCCUUGCCGAGUGAUGUUCGGACCCUUGGCAGCGUUUGCGAGAGG [lliltkmullin]', 'nM', 308),
  ('GCAGACACGCAGUGAUGUUGCGAAACGGAAGGAGCGCGUGAAAACGCAGGUAGGUCGCCGAAACAUAAAUUAUAAUUUUGUUUGC [Arginine A K4 13]', 'nM', 194),
  ('GCGGACAUUCGCAGUGAUGUUGCGACGGAAGGAGCGCGUGAAAACGCAGGUAGGUCGCCGACAAAAUUAAUUUUAAUGUGUUCGC [Arginine A K4 30]', 'nM', 387);

###

Catalogue of sequences with associated apparent KD of MS2 coat protein
Test system: MS2 coat protein
method: apparent KD of MS2 coat protein; designed switch direction (-1 OFF switch, 1 ON switch): -1; higher = weaker reporter binding
experimental_parameters: input ligand: microRNA oligo, concentration not stated
endpoint_label: apparent KD of MS2 coat protein (nM)

INSERT INTO results (residue_sequence, tested_target, endpoint_label, test_value) VALUES
  ('GUCAGCUCGUGAGGAUAUACAUGAUAGAUCGAUUAAUUAAUUAAUUUAACAUGAGGAUCACCCAUGUAGAAGGUACGAGCUGAC [ENG2/1-C1] (Eterna round: R96, puzzle: Exclusion NG 2)', 'MS2 coat protein', 'apparent KD of MS2 coat protein', 43.3),
  ('AAAUAAAGCCUAGGAUAUCCGGACGAUAACCCAGGAGAAGGAGGAUGUCGAAGAAGACAUGAGGAUCACCCAUGUGCGUCCUCU [Ancegege] (Eterna round: R96, puzzle: Exclusion NG 1)', 'MS2 coat protein', 'apparent KD of MS2 coat protein', 10.6),
  ('UUGUUAUAUGAAGGAUAUACUUAACAUGAGGAUCACCCAUGUGGUGUUGUGAGUGAGUGAGUUUAGUAGAAGGUCAAGUAUUUU [JMF''s solution 52] (Eterna round: R96, puzzle: Exclusion NG 2)', 'MS2 coat protein', 'apparent KD of MS2 coat protein', 368),
  ('AGUACUAUCACGAAAGUGAUAGUACGAGGAGCAAGUGGAACAUGAGGAUCACCCAUGUCCUCAUCUGCUCGUCUUAU [salish99-s2-v2-x008] (Eterna round: R96, puzzle: Sensor v2, turn-off variant 2)', 'MS2 coat protein', 'apparent KD of MS2 coat protein', 172),
  ('UUUGAUUGCACAGGAUAUUGUCAUUUGAGUUGUCAAGAAGGGUGUACAUGAGGAUCACCCAUGUAAUGGUUGCCUCGCUGACUU [JR_ExcNG1_Sub008] (Eterna round: R96, puzzle: Exclusion NG 1)', 'MS2 coat protein', 'apparent KD of MS2 coat protein', 77.1),
  ('AGCUGUGGCCGAGGAUAUACAAUAACGAUGAGUGGAUUACACUCUUCGACAUGAGGAUCACCCAUGUAGAAGGCGGUCUCAGCA [Eli eng2 - 001] (Eterna round: R96, puzzle: Exclusion NG 2)', 'MS2 coat protein', 'apparent KD of MS2 coat protein', 14.6),
  ('ACAUGAGGAUCACCCAUGUCAGGCUGGUCCGCUCCGGCUGUUGAGGAUAUAGCACGGUAUCCGCGCUAGAAGGUGAGGGCCGGC [Aenatbe mod 30] (Eterna round: R96, puzzle: Exclusion NG 3)', 'MS2 coat protein', 'apparent KD of MS2 coat protein', 18),
  ('UGAACAUGAGGAUCACCCAUGUGGUUAGGUGAAAUCCUGCUGGAGGAUAUAAGUCCUGGUGCCGCUUAGAAGGCCAGCUGACAG [Eternabot solution 48] (Eterna round: R96, puzzle: Exclusion NG 3)', 'MS2 coat protein', 'apparent KD of MS2 coat protein', 56.7),
  ('CUGCUCCGUGUAGGAUAUGCGCGCAACCAACGCGCAGAAGGACAUGAGGAUCACCCAUGUAUGUUAUUAUCACGUGAGGCGCAA [Design 32] (Eterna round: R96, puzzle: Exclusion NG 1)', 'MS2 coat protein', 'apparent KD of MS2 coat protein', 13.8);
